# Activity annotations
System: Mus musculus
Assay: Anticonvulsant activity in Swiss Albino mouse assessed as duration of seizure at 2 mg/kg, po by PTZ induced seizure test
Format: functional
Numbers only here, please. The scale is s.

Form: compound = CCc1nn2c(=O)c3c4c(sc3nc2s1)CCCC4 ; Activity = 110

Form: compound = Nn1c(SCC(=O)c2cc3ccccc3oc2=O)nc2sc3c(c2c1=O)CCCC3 ; Activity = 56

Form: compound = O=c1c2c3c(sc2nc2sc(-c4ccc([N+](=O)[O-])cc4)nn12)CCCC3 ; Activity = 56

Form: compound = Cc1cccc(-c2nn3c(=O)c4c5c(sc4nc3s2)CCCC5)c1 ; Activity = 51

Form: compound = Cc1cc(C)cc(-c2nn3c(=O)c4c5c(sc4nc3s2)CCCC5)c1 ; Activity = 68

Form: compound = COc1ccc(C(=O)CSc2nc3sc4c(c3c(=O)n2N)CCCC4)cc1 ; Activity = 41

Form: compound = Cc1nn2c(=O)c3c4c(sc3nc2s1)CCCC4 ; Activity = 3600

Form: compound = CCCc1nn2c(=O)c3c4c(sc3nc2s1)CCCC4 ; Activity = 73

Form: compound = Nn1c(SCC(=O)c2ccc(O)c(O)c2)nc2sc3c(c2c1=O)CCCC3 ; Activity = 62

Form: compound = Nn1c(SCC(=O)c2ccc(Cl)cc2)nc2sc3c(c2c1=O)CCCC3 ; Activity = 400

Form: compound = O=c1c2c3c(sc2nc2sc(-c4ccccc4)nn12)CCCC3 ; Activity = 58

Form: compound = O=c1c2c3c(sc2nc2sc(CCl)nn12)CCCC3 ; Activity = 70

Form: compound = O=c1c2c3c(sc2nc2sc(=S)[nH]n12)CCCC3 ; Activity = 56

* * *

System: Aspergillus fumigatus
Assay: Antifungal activity against Aspergillus fumigatus NCIM 902 by serial plate dilution method
Format: functional
Details: Aspergillus fumigatus, NCIM 902
property.label: MIC

Example compounds with recorded MIC:
compound	MIC
Nn1c(SCC(=O)c2ccnc(Cl)c2)nc2sc3c(c2c1=O)CCCC3	80 µg/mL
O=c1c2c3c(sc2nc2sc(Cc4ccccc4)nn12)CCCC3	> 100 µg/mL
Cc1cc(C)cc(-c2nn3c(=O)c4c5c(sc4nc3s2)CCCC5)c1	12.5 µg/mL

Next:
Form: compound = O=c1c2c3c(sc2nc2sc(-c4ccccc4)nn12)CCCC3 ; MIC = 12.5 µg/mL

* * *

Tested on: Escherichia coli
Test: Antibacterial activity against Escherichia coli ATCC 25922 by disc diffusion method
Assay type: functional
property.label: inhibition zone (IZ) (mm)
Numbers only here, please. The scale is mm.

structure	property.label	recorded.number
Nn1c(SCC(=O)c2ccc(O)c(O)c2)nc2sc3c(c2c1=O)CCCC3	inhibition zone (IZ)	10

Form: compound = Nn1c(SCC(=O)c2ccnc(Cl)c2)nc2sc3c(c2c1=O)CCCC3 ; inhibition zone (IZ) = 8

Form: compound = Nn1c(SCC(=O)c2cc3ccccc3oc2=O)nc2sc3c(c2c1=O)CCCC3 ; inhibition zone (IZ) = 18

Form: compound = COc1ccc(C(=O)CSc2nc3sc4c(c3c(=O)n2N)CCCC4)cc1 ; inhibition zone (IZ) = 8

Form: compound = Cc1cc(C)cc(-c2nn3c(=O)c4c5c(sc4nc3s2)CCCC5)c1 ; inhibition zone (IZ) = 16
